# test.target: UniProtKB Q9NQS5
# run.description: Human neutrophil migration inhibition assay, Embelin as chemotactic agent
# Format: cell-based
# experimental.setup: 5 μM Embelin; compound 10 μM; read-out: Percentage of chemotaxis inhibition (PIN) @ 10 μM
measurement.name: inhibition at 10 µM (%)

[[record]]
molecule = "O=c1nc(OCC2COCCO2)cc2n1CCc1cc(OCc3noc(C4CC4)n3)ccc1-2 (stereo not drawn)"
measurement_name = "inhibition at 10 µM"
units = "%"
observed = 89

[[record]]
molecule = "CCCC(O)C#Cc1ccc2c(c1)CCn1c-2cc(OCC2COCCO2)nc1=O (stereo not drawn)"
measurement_name = "inhibition at 10 µM"
units = "%"
observed = 90

[[record]]
molecule = "O=c1nc(OCC2COCCO2)cc2n1CCc1cc(C#CCNc3ccccc3)ccc1-2 (stereo not drawn)"
measurement_name = "inhibition at 10 µM"
units = "%"
observed = 72

[[record]]
molecule = "O=c1nc(OCC2COCCO2)cc2n1CCc1cc(CCC(O)c3cccnc3)ccc1-2 (stereo not drawn)"
measurement_name = "inhibition at 10 µM"
units = "%"
observed = 81

[[record]]
molecule = "CC(O)CCCc1ccc2c(c1)CCn1c-2cc(OC[C@@H]2COCCO2)nc1=O (stereo partly drawn)"
measurement_name = "inhibition at 10 µM"
units = "%"
observed = 86

[[record]]
molecule = "O=c1nc(OC[C@@H]2COCCO2)cc2n1CCc1cc(CCCNc3ccccc3)ccc1-2"
measurement_name = "inhibition at 10 µM"
units = "%"
observed = 80

[[record]]
molecule = "CCC(C)(C)CNc1ccc2c(c1)CCn1c-2cc(OC[C@@H]2COCCO2)nc1=O"
measurement_name = "inhibition at 10 µM"
units = "%"
observed = 103

[[record]]
molecule = "CC(C)C#Cc1ccc2c(c1)CCn1c-2cc(OC[C@@H]2COCCO2)nc1=O"
measurement_name = "inhibition at 10 µM"
units = "%"
observed = 96

[[record]]
molecule = "O=c1nc(OC[C@@H]2COCCO2)cc2n1CCc1cc(OCC3CCCCO3)ccc1-2 (stereo partly drawn)"
measurement_name = "inhibition at 10 µM"
units = "%"
observed = 88


###

# test.target: GPR84 (Homo sapiens, UniProt Q9NQS5)
# Sequence (Q9NQS5 whole entry): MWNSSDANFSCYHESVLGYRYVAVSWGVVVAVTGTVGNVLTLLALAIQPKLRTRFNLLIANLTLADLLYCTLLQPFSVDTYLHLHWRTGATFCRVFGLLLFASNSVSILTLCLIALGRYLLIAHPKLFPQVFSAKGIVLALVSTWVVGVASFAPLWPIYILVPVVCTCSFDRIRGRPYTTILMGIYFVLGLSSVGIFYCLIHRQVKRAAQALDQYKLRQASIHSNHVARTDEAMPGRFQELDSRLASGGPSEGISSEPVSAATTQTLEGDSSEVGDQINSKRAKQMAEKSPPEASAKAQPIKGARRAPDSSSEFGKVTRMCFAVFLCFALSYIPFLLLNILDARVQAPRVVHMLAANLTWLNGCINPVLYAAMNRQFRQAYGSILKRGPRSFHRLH
# run.description: Human neutrophil migration inhibition assay, Embelin as chemotactic agent
# Format: cell-based
# experimental.setup: 5 μM Embelin; compound 0.1 μM; read-out: Percentage of chemotaxis inhibition (PIN) @ 0.1 μM
measurement.name: inhibition at 0.1 µM (%)

Example entries begin here.
[[record]]
compound = "CC(O)CCCc1ccc2c(c1)CCn1c-2cc(OC[C@@H]2COCCO2)nc1=O (stereo partly drawn)"
test_target = "GPR84 (Homo sapiens, UniProt Q9NQS5)"
measurement_name = "inhibition at 0.1 µM"
observed = 66

[[record]]
compound = "O=c1nc(OCC2COCCO2)cc2n1CCc1cc(OCc3noc(C4CC4)n3)ccc1-2 (stereo not drawn)"
test_target = "GPR84 (Homo sapiens, UniProt Q9NQS5)"
measurement_name = "inhibition at 0.1 µM"
observed = 69

[[record]]
compound = "CCC(C)(C)CNc1ccc2c(c1)CCn1c-2cc(OC[C@@H]2COCCO2)nc1=O"
test_target = "GPR84 (Homo sapiens, UniProt Q9NQS5)"
measurement_name = "inhibition at 0.1 µM"
observed = 52

[[record]]
compound = "CC(C)C#Cc1ccc2c(c1)CCn1c-2cc(OC[C@@H]2COCCO2)nc1=O"
test_target = "GPR84 (Homo sapiens, UniProt Q9NQS5)"
measurement_name = "inhibition at 0.1 µM"
observed = 73

[[record]]
compound = "CCCC(O)C#Cc1ccc2c(c1)CCn1c-2cc(OCC2COCCO2)nc1=O (stereo not drawn)"
test_target = "GPR84 (Homo sapiens, UniProt Q9NQS5)"
measurement_name = "inhibition at 0.1 µM"
observed = 86

[[record]]
compound = "O=c1nc(OCC2COCCO2)cc2n1CCc1cc(CCC(O)c3cccnc3)ccc1-2 (stereo not drawn)"
test_target = "GPR84 (Homo sapiens, UniProt Q9NQS5)"
measurement_name = "inhibition at 0.1 µM"
observed = 54

[[record]]
compound = "O=c1nc(OC[C@@H]2COCCO2)cc2n1CCc1cc(OCC3CCCCO3)ccc1-2 (stereo partly drawn)"
test_target = "GPR84 (Homo sapiens, UniProt Q9NQS5)"
measurement_name = "inhibition at 0.1 µM"
observed = 64


I = O=c1nc(OC[C@@H]2COCCO2)cc2n1CCc1cc(CCCNc3ccccc3)ccc1-2
II = O=c1nc(OCC2COCCO2)cc2n1CCc1cc(C#CCNc3ccccc3)ccc1-2 (stereo not drawn)
[Q] From the items above, decide which of I and II has the lower inhibition at 0.1 µM reading. Write down the label attached to your selection.
[A] II
(II: 38%, I: 71%)

Cited source: patent US9945843B2
